Measured melting point, listed per entry.
Where a name gives a salt, the structure may show the parent alone.
PROPERTY_LABEL: melting point

INSERT INTO measurements (molecule, property_label, reported_result) VALUES
  ('N=C(NCCCCc1ccc(OCC(=O)OCCN)cc1)NC(=O)c1nc(Cl)c(N)nc1N (as salt: hydrochloride)', 'melting point', '66 to 68 °C'),
  ('N=C(NCCCCc1ccc(OCC(=O)OCCN2CCCCC2)cc1)NC(=O)c1nc(Cl)c(N)nc1N', 'melting point', '60 to 62 °C'),
  ('CS(=O)(=O)O.CS(=O)(=O)O.N=C(NCCCCc1ccc(C(=O)N2CCNCC2)cc1)NC(=O)c1nc(Cl)c(N)nc1N [PSA23607]', 'melting point', '122 to 124 °C'),
  ('N=C(NCCCCc1ccc(OCC(=O)OCC2CCNCC2)cc1)NC(=O)c1nc(Cl)c(N)nc1N (as salt: hydrochloride)', 'melting point', '100 to 102 °C'),
  ('CN(C)CCCNC(=O)COc1ccc(CCCCNC(=N)NC(=O)c2nc(Cl)c(N)nc2N)cc1 (as salt: methanesulfonate)', 'melting point', '187 to 190 °C');
